Please provide measured Post-emergence action against SETVI for the entries that follow.
tested on: Setaria viridis; experiment: Post-emergence herbicidal effect against SETVI; format: in vivo; settings: 80 g/ha, visual assessment after about 3 weeks
Give bare numbers, in %.

Compound | Post-emergence action against SETVI (%)
CCOC(=O)OC1=C(c2c(C)cc(C)cc2OC)C(=O)N(C)C12COC1(CCOCC1)OC2 [Example 8-1] | 100

// batch mode: one Post-emergence action against SETVI value per listed entry
1. COc1cc(C)cc(C)c1C1=C([O-])C2(COC3(CCOCC3)OC2)N(C)C1=O.[Na+] [Example 6-1]
2. CCOC(=O)OC1=C(c2c(C)cc(C)cc2OC)C(=O)NC12COC1(CCOCC1)OC2 [Example 4-1]

[90, 100]

// batch mode: one Post-emergence action against SETVI value per listed entry
1. COc1cc(C)cc(C)c1C1=C([O-])C2(COC3(CCOCC3)OC2)NC1=O.[Na+] [Example 2-1]
2. COc1cc(Cl)cc(C)c1C1=C(O)C2(COC3(CCOCC3)OC2)NC1=O [Example 2-4]
3. CCC(=O)OC1=C(c2c(C)cc(Cl)cc2OC)C(=O)NC12COC1(CCOCC1)OC2 [Example 3-4]

1: 90; 2: 80; 3: 90

// batch mode: one Post-emergence action against SETVI value per listed entry
1. COc1cc(C)cc(C)c1C1=C(O)C2(COC3(CCOCC3)OC2)NC1=O [Example 1-1]
2. CCC(=O)OC1=C(c2c(C)cc(C)cc2OC)C(=O)NC12COC1(CCOCC1)OC2 [Example 3-1]
3. COc1cc(C)cc(C)c1C1=C(O)C2(COC3(CCOCC3)OC2)N(C)C1=O [Example 5-1]
4. COc1cc(Cl)cc(C)c1C1=C(O)C2(COC3(CCOCC3)OC2)NC1=O [Example 1-4]
5. CCOC(=O)OC1=C(c2c(C)cc(Cl)cc2OC)C(=O)NC12COC1(CCOCC1)OC2 [Example 4-4]

1: 100; 2: 90; 3: 90; 4: 90; 5: 90
